Test system: MS2 coat protein
Experiment: apparent KD of MS2 coat protein, switch OFF state (with FMN for OFF switches, without FMN for ON switches); designed switch direction (-1 OFF switch, 1 ON switch): -1; higher = weaker reporter binding
Conditions: FMN input: 0 or 200 uM; Eterna round: R93 (includes R88 designs)
The recorded apparent KD of MS2 coat protein of each item maps onto one of these classes: low group: < 20 nM; middle group: ≥ 20 nM and < 50 nM; high group: ≥ 50 nM

Would you please look over these solved cases?
                           residue_sequence  qualitative_label
0  AAAUUGUCAGGAUAUCCUAUAAUAAUAAAAUAGAGGAGAUAGGAGAAGGGACAUGAGGAUCACCCAUGUAAAAC [May 85]       middle group
1  AAAAAGGGAGGAUAUACAUGAGGAUCACCCAUGUAAAAAAAAAAAAAGGGAAAAAAAAGUAGAAGGCCCAAAAA [Apepi]         high group
2  AAAAAGGCAGGAUAUACGAAGCUAAGACAAAUAAGCAAGGGACAUGAGGAUCACCCAUGUAGAAGGGCCAAAAA [Exclusion 2-01... 60% 3]         high group
3  AAAAAAGGAGGAUAUACGUACAUGUCAAAAGACGUGAAGGGACAUGAGGAUCACCCAUGUAGAAGGUUUAAAAA [JL Wide Open 31]          low group
4  AAACCACAUGAGGAUCACCCAUGUGAGGAUAUGAACGAAAUAAAAUAAAAAAUAAAGUUCAGAAGGCACAAAAA [Mat - Exclusion 1 - Eli mod - D15]       middle group
5  AGUGAGUGAGGAUAUCACUGAACAACAAAACAAAUAACGAGUGAGAAGGCACAUGAGGAUCACCCAUGUACACA [May 67]          low group

Okay, now this sequence:
## Task Just checking, what class would you give AACAGUACAGGAUAUACAUGAGGAUCACCCAUGUGAACUUCAAGUGCCGUAGCACGAAGUAGAAGGGUACUGGA here?
## Result high group
